The reported numbers originate from PubChem BioAssay AID1159580.

Protocol Notes: chemical genetic growth profiling, strain panel (AID 1159580);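 note: tested at 20 µM; growth read once vehicle control cultures reached saturation at 30 °C; 1 = growth at the plate median or of vehicle wells; lower values mean less growth of the strain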
Applied Conditions: S. cerevisiae deletion strains, growth OD, locus YLR268W, strain sec22, active compounds read low
About 2,000 (36%) of roughly 5,500 compounds were called active. Inconclusive results (about 18%) are left out. The list shows a part of the results.
Value Type: normalized growth
Keep the answer to the number alone.

Reference set (4 entries):
- Compound: "COc1c(N2CCNC(C)C2)c(F)cc2c(=O)c(C(=O)O)cn(C3CC3)c12 (stereo not given)"
  Numeric Readout: 0.988
- Compound: "CC1CCc2cc(F)cc3c(=O)c(C(=O)O)cn1c23 (stereo not given)"
  Numeric Readout: 0.894
- Compound: "CCn1cc(C(=O)O)c(=O)c2cc(F)c(N3CCNC(C)C3)c(F)c21 (stereo not given)"
  Numeric Readout: 0.988
- Compound: "C[C@H]1COc2c(N3CCN(C)CC3)c(F)cc3c(=O)c(C(=O)O)cn1c23"
  Numeric Readout: 1

Which measured normalized growth value corresponds to CC1COc2c(N3CCN(C)CC3)c(F)cc3c(=O)c(C(=O)O)cn1c23 (stereo not given) ?
1.01

###

Protocol Notes: chemical genetic growth profiling, strain panel (AID 1159580)
Applied Conditions: S. cerevisiae deletion strains, growth OD, locus YPL055C, strain LGE1
Screen size: about 5,500 compounds; about 2,000 (36%) were called active. Roughly 18% stayed inconclusive and do not appear here. Rule as the data show it: active = normalized growth mostly below about 0.91 (no sharp cut-off); inconclusive = no clear call, values can overlap the other calls; inactive = mostly above about 0.92. Some of the results follow.
Hi! Could you answer with just one of these? active, inactive

Here's what some known entries look like.
- Compound: "OCC(O)CN1CCN(c2ccccc2)CC1 (stereo unspecified)"
  Cat: "inactive"
- Compound: "COc1c(N2CCNC(C)C2)c(F)cc2c(=O)c(C(=O)O)cn(C3CC3)c12 (stereo unspecified)"
  Cat: "inactive"
- Compound: "COc1ccc(/C=C2\\CC/C(=C\\c3ccc(OC)c(OC)c3)C2=O)cc1OC"
  Cat: "inactive"

Which result was noted for this compound in the test: CC12NC(Cc3ccccc31)c1ccccc12 (stereo unspecified)
inactive

###

Protocol Notes: chemical genetic growth profiling, strain panel (AID 1159580)
Applied Conditions: S. cerevisiae deletion strains, growth OD, locus YER155C, strain BEM2 (second series)
The whole screen tested about 5,500 compounds, of which about 2,000 (36%) were called active. Inconclusive results (about 18%) are left out. Cut-off read from the data, not from the text of the source: active = normalized growth mostly below about 0.91 (no sharp cut-off); inconclusive = no clear call, values can overlap the other calls; inactive = mostly above about 0.92. The list shows a part of the results.
Hi! Could you answer with just one of these? active, inactive

Here's what some known entries look like.
- Molecule: "C[C@@H]1CC(Cl)CC[C@H]1C(=O)OC(C)(C)C (some centres not stated)"
  Cat: "inactive"
- Molecule: "CC[C@@H]1C=C/C=C/C[C@H](C)[C@@H](O)[C@](C)(O)C(=O)[C@H](C)[C@@H](O)[C@H](C)C(=O)[C@H](C)[C@@H](O)[C@H](C)/C=C/C(=O)O[C@H]2[C@@H](C)[C@@H](CC1)O[C@@]1(CC[C@@H](C)[C@@H](C[C@H](C)O)O1)[C@@H]2C"
  Cat: "inactive"
- Molecule: "N[C@@H](Cc1ccc(N(CCCl)CCCl)cc1)C(=O)O"
  Cat: "inactive"

Which result was noted for this molecule in the test: CCN(CC)C(=O)N1CCN(C)CC1
inactive

Which result was noted for this molecule in the test: O=C(O)CCCc1ccc(N(CCCl)CCCl)cc1
inactive

Which result was noted for this molecule in the test: COc1ccc(CN(CCN(C)C)c2ccccn2)cc1
inactive

Which result was noted for this molecule in the test: O=C(O)CCCc1ccccc1
inactive

Which result was noted for this molecule in the test: CN1C2CCC1CC(OC(c1ccccc1)c1ccccc1)C2 (configuration not stated)
inactive

Which result was noted for this molecule in the test: O=C(c1ccc(OCCN2CCCCC2)cc1)c1c(-c2ccc(O)cc2)sc2cc(O)ccc12
active

Which result was noted for this molecule in the test: CN1C2C[C@H](OC(=O)[C@H](CO)c3ccccc3)C[C@H]1[C@@H](O)C2
inactive

Which result was noted for this molecule in the test: COC(=O)c1cc(=O)c(O)c2c(O)c(O)ccc2c1
inactive

Which result was noted for this molecule in the test: C=C1C2CC[C@@]3(C)[C@H](c4ccoc4)OC(=O)C[C@]13O[C@H]1CC(=O)C(C)(C)[C@H](C(OC(C)=O)C(=O)OC)[C@@]21C (some centres not stated)
inactive

Which result was noted for this molecule in the test: CC(=O)S[C@@H]1CC2=CC(=O)CC[C@]2(C)[C@H]2CC[C@@]3(C)[C@@H](CC[C@@]34CCC(=O)O4)C12 (some centres not stated)
inactive

Which result was noted for this molecule in the test: O=c1cccc2ccc(O)c(O)c2c1O
active

Which result was noted for this molecule in the test: CCC[C@H](N[C@@H](C)C(=O)N1[C@H](C(=O)O)C[C@@H]2CCCC[C@@H]21)C(=O)OCC
inactive

###

Protocol Notes: chemical genetic growth profiling, strain panel (AID 1159580)
Applied Conditions: S. cerevisiae deletion strains, growth OD, locus YNL197C, strain WHI3
Hit rate of the full screen: of about 5,500 compounds, about 2,000 (36%) were called active. About 18% were inconclusive and are not listed. Cut-off read from the data, not from the text of the source: active = normalized growth mostly below about 0.91 (no sharp cut-off); inconclusive = no clear call, values can overlap the other calls; inactive = mostly above about 0.92. The list shows a part of the results.
Hi! Could you answer with just one of these? active, inactive

Here's what some known entries look like.
- Compound: "Nc1ncnc2c1ncn2C1OC2COP(O)(=S)O[C@@H]2[C@@H]1O (some centres undefined)"
  Cat: "inactive"
- Compound: "C=CC1(C)CC(=O)C2(O)C(C)(O1)C(OC(C)=O)C(O)C1C(C)(C)CCC(O)C12C (centres undefined)"
  Cat: "inactive"
- Compound: "CN1C2CCC1CC(OC(=O)c1cc(Cl)cc(Cl)c1)C2 (centres undefined)"
  Cat: "inactive"
- Compound: "Cc1ccc(S(=O)(=O)NC(=O)NN2CCCCCC2)cc1"
  Cat: "inactive"
- Compound: "CN1C2CCC1CC(OC(=O)c1c[nH]c3ccccc13)C2 (centres undefined)"
  Cat: "inactive"

Switching to the query record.
Which result was noted for this compound in the test: CC(C)(C)NCC(O)COc1cccc2[nH]c(=O)[nH]c12 (centres undefined)
inactive

###

Entries and their normalized growth
Protocol Notes: chemical genetic growth profiling, strain panel (AID 1159580);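 note: tested at 20 µM; growth read once vehicle control cultures reached saturation at 30 °C; 1 = growth at the plate median or of vehicle wells; lower values mean less growth of the strain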
Applied Conditions: S. cerevisiae deletion strains, growth OD, locus YGL078C, strain dbp3, active compounds read low
Among all 5,500 compounds or so, about 2,000 (36%) were called active. Not shown: some 18% with an inconclusive outcome. The list shows a part of the results.
Keep the answer to the number alone.

Reference set (3 entries):
- Molecule: "C[C@@H]1O[C@@H](O[C@H]2[C@H](Oc3cc(O)c4c(=O)cc(-c5ccc(O)cc5)oc4c3)O[C@H](CO)[C@@H](O)[C@@H]2O)[C@H](O)[C@H](O)[C@H]1O"
  normalized growth: 0.981
- Molecule: "CC(C)NCC(O)COc1cccc2[nH]ccc12 (stereo unspecified)"
  normalized growth: 0.99
- Molecule: "CN1CC(=O)N=C1N"
  normalized growth: 0.995

// switching to the query molecule
Which measured normalized growth value corresponds to COc1ccc(-c2coc3cc(O)ccc3c2=O)cc1 ?
0.91

###

Protocol Notes: chemical genetic growth profiling, strain panel (AID 1159580);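 note: tested at 20 µM; growth read once vehicle control cultures reached saturation at 30 °C; 1 = growth at the plate median or of vehicle wells; lower values mean less growth of the strain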
Applied Conditions: S. cerevisiae deletion strains, growth OD, locus YML124C, strain tub3, active compounds read low
The whole screen tested about 5,500 compounds, of which about 2,000 (36%) were called active. Another 18% or so got no clear call; they are omitted. The list shows a part of the results.
Entries and their normalized growth
Keep the answer to the number alone.

Which measured normalized growth value corresponds to C[C@]12CCC(=O)C=C1C=CC1C2CC[C@@]2(C)C1CC[C@@]2(O)CCC(=O)O (stereo partly drawn) ?
0.996

Which measured normalized growth value corresponds to CC(=O)S[C@@H]1CC2=CC(=O)CC[C@]2(C)[C@H]2CC[C@@]3(C)[C@@H](CC[C@@]34CCC(=O)O4)C12 (stereo partly drawn) ?
1.04

Which measured normalized growth value corresponds to O=C1CCC(N2C(=O)c3ccccc3C2=O)C(=O)N1 (stereo not drawn) ?
0.988

###

Protocol Notes: chemical genetic growth profiling, strain panel (AID 1159580);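 note: tested at 20 µM; growth read once vehicle control cultures reached saturation at 30 °C; 1 = growth at the plate median or of vehicle wells; lower values mean less growth of the strain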
Applied Conditions: S. cerevisiae deletion strains, growth OD, locus YMR129W, active compounds read low
Screen size: about 5,500 compounds; about 2,000 (36%) were called active. Another 18% or so got no clear call; they are omitted. The list shows a part of the results.
Entries and their normalized growth
Keep the answer to the number alone.

Reference set (10 entries):
- Compound: "O=c1cccc2ccc(O)c(O)c2c1O"
  normalized growth: 0.976
- Compound: "COc1ccc2c(c1)OC/C(=C\\c1ccc(OC)c(O)c1)C2=O"
  normalized growth: 0.946
- Compound: "CCn1cc(C(=O)O)c(=O)c2cc(F)c(N3CCNCC3)nc21"
  normalized growth: 0.981
- Compound: "CN1C2CCC1CC(OC(c1ccccc1)c1ccccc1)C2 (stereo unspecified)"
  normalized growth: 0.984
- Compound: "C=CC[C@]1(O)CCC2C3CCC4=CC(=O)CCC4=C3C=C[C@@]21C (stereo partly specified)"
  normalized growth: 0.993
- Compound: "COc1ccc2c(c1)OC/C(=C/c1ccc(OC)c(OC)c1)C2=O"
  normalized growth: 0.996
- Compound: "COC(=O)C1=COC(OC2OC(CO)C(O)C(O)C2O)C2C(C)CC(=O)C12 (stereo unspecified)"
  normalized growth: 1.03
- Compound: "CC#CC1(O)CCC2C3CCC4=CC(=O)CCC4=C3C(c3ccc(N(C)C)cc3)CC21C (stereo unspecified)"
  normalized growth: 0.991
- Compound: "COc1ccc(C(CN(C)C)C2(O)CCCCC2)cc1 (stereo unspecified)"
  normalized growth: 0.993
- Compound: "CCn1cc(C(=O)O)c(=O)c2cc(F)c(N3CCNC(C)C3)c(F)c21 (stereo unspecified)"
  normalized growth: 0.971

Which measured normalized growth value corresponds to O=C(O)CCCc1ccccc1 ?
0.978

Which measured normalized growth value corresponds to COC(=O)[C@@H]1OC(=O)C2OC23[C@@]1(C)CCC1[C@]2(C)C(C[C@H](O)[C@]13C)C(C)(C)[C@H](OC(C)=O)C[C@@H]2OC(C)=O (stereo partly specified) ?
1

Which measured normalized growth value corresponds to COC(=O)C[C@H]1C2(C)CC34OC5(C)O[C@@]6([C@H](OC)C(OC(=O)C(C)C)[C@]7(C)C(/C(=C(/OC)C(C)C)C(=O)O[C@H]7c7ccoc7)[C@@]6(O5)[C@H](OC)[C@@]3(OC)C2OC(C)=O)[C@]14C (stereo partly specified) ?
0.986
